Target: UniProt:P43490
Test: Assay 1: Biochemical Inhibition Assay (NAMPT enzymatic reaction, NMN quantified by mass spectrometry)
Conditions: read-out: Biochemical (IC50)
Measured Endpoint: pIC50
Give only the number. pIC50 is defined as minus log10 of concentration in molar units.

# annotated cases, reported pIC50 shown
CC(=O)N1CCC(S(=O)(=O)c2ccc(CNC(=O)c3cnc4nccn4c3)cc2)CC1 [Example 86]	8.29
O=C(NCc1ccc(S(=O)(=O)C2CCN(C3COC3)CC2)cc1)c1cc2ccncc2s1 [Example 252]	8.37
N#CC1CCN(S(=O)(=O)c2ccc(CNC(=O)c3ccc4nccn4c3)cc2)CC1	7.39

Field: next compound
(Q) Please look at O=C(NCc1ccc(S(=O)(=O)N2CCCCC2)cc1)c1ccn2nccc2c1 and tell me its recorded pIC50 on UniProt:P43490.
(A) 7.34

---

Target: NAMPT (Homo sapiens (Human), UniProt P43490)
Sequence (P43490 whole entry): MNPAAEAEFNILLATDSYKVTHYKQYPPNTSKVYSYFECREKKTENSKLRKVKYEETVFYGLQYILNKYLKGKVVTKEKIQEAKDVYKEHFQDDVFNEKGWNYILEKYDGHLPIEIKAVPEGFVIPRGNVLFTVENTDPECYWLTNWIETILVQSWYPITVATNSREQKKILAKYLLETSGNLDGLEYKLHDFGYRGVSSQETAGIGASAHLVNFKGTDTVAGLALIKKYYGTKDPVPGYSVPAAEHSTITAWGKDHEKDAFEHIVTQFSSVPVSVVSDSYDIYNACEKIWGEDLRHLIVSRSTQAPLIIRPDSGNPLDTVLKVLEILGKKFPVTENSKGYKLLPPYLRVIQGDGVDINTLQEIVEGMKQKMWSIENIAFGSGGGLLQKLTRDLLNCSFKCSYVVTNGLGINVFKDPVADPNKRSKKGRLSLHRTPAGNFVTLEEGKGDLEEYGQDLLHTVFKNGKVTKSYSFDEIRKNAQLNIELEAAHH
Experiment: Assay 1: Biochemical Inhibition Assay (NAMPT enzymatic reaction, NMN quantified by mass spectrometry)
Conditions: read-out: Biochemical (IC50)
Measured Endpoint: IC50

Consider the reported IC50 for these compounds:
O=C(NCc1ccc(S(=O)(=O)N2CC3CCC(F)(F)C3C2)cc1)c1ccc2nccn2c1 (single isomer, unassigned) [Example 74]	5 nM
C[C@@H]1CN(S(=O)(=O)c2ccc(CNC(=O)c3cc4ccncc4o3)cc2)C[C@H](C)N1C1COC1 [Example 286]	14.5 nM
CCCN1CCC([S+]([O-])c2ccc(CNC(=O)c3cc4ccncc4o3)cc2)CC1 (stereo not shown) [Example 382]	2000 nM
CN1CCC2(C1)CN(S(=O)(=O)c1ccc(CNC(=O)c3cnc4[nH]ncc4c3)cc1)C2 [Example 283]	199 nM
O=C(NCc1ccc([S+]([O-])C2CCN(C3CCOCC3)CC2)cc1)c1cnc2[nH]ncc2c1 (stereo not shown) [Example 381]	290 nM

(Q) Respond only with IC50 recorded for O=C(NCc1ccc(S(=O)(=O)N2CCC(CO)CC2)cc1)c1cc2ccncc2o1 [Example 299]
(A) 24.4 nM

(Q) Identify measured IC50 corresponding to CC(C)(C)OC(=O)N1CCC2(CCCN(S(=O)(=O)c3ccc(CNC(=O)c4ccc5nccn5c4)cc3)C2)CC1 [Example 131]
(A) 40.4 nM

---

Target: NAMPT (Homo sapiens (Human), UniProt P43490)
Test: Assay 1: Biochemical Inhibition Assay (NAMPT enzymatic reaction, NMN quantified by mass spectrometry)
Details: read-out: Biochemical (IC50)
Measured Endpoint: IC50

O=C(NCc1ccc(S(=O)(=O)C2CCN(CC(F)(F)F)CC2)cc1)c1cc2cnccc2[nH]1 [Example 211]	15.4 nM

Could you now look at the following molecule, please?
(Q) Report measured IC50; entry is CN1CCN(S(=O)(=O)c2ccc(CNC(=O)c3ccc4nccn4c3)cc2)CC1
(A) 101 nM

---

Target: NAMPT (Homo sapiens (Human), UniProt P43490)
Assay: Assay 1: Biochemical Inhibition Assay (NAMPT enzymatic reaction, NMN quantified by mass spectrometry);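 further: recombinant His-tagged human NAMPT preincubated with compound 15 min, then reacted 30 min at rt with 1 µM NAM, 100 µM PRPP, 2.5 mM ATP, NMN product read by RapidFire MS, normalized to L-Cystathionine internal standard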
Settings: read-out: Biochemical (IC50)
Measured Endpoint: pIC50
Field pIC50 (float): negative decimal logarithm of the concentration in molar.

Use the examples below as a reference point.
O=C(NCc1ccc(S(=O)(=O)C2CCN(CC(F)(F)F)CC2)cc1)c1cc2cnccc2[nH]1 [Example 66]	7.81
CC(C)(C)OC(=O)N1CCC2(CCN(S(=O)(=O)c3ccc(CNC(=O)c4ccc5nccn5c4)cc3)CC2)C1 [Example 103]	7.53
O=C(NCc1ccc(S(=O)(=O)[C@@H]2CCOC2)cc1)c1cnc2nccn2c1 [Example 226]	8.05
CC(C)(C)OC(=O)N1CCC2(CCCN2S(=O)(=O)c2ccc(CNC(=O)c3ccc4nccn4c3)cc2)C1 (stereo not shown) [Example 237]	6.96
CCCN1CCC(S(=O)(=O)c2ccc(CNC(=O)c3cc4ccncc4o3)cc2)CC1 [Example 342]	7.69
O=C(NCc1ccc(S(=O)(=O)N2CCCC(O)C2)cc1)c1ccc2nccn2c1 (racemic) [Example 19]	7.74
O=C(NCc1ccc(S(=O)(=O)C2CCN(C3COC3)CC2)cc1)c1ccc2nccn2c1 [Example 248]	7.71
O=C(NCc1ccc(S(=O)(=O)N2CCOC3CNCC32)cc1)c1ccc2nccn2c1 (stereo not shown) [Example 327]	5.89

(Q) Please look at this compound and report its pIC50: CC(C)(C)OC(=O)N1C[C@H]2CN(S(=O)(=O)c3ccc(CNC(=O)c4ccc5nccn5c4)cc3)C[C@H]21 (racemic) [Example 128]
(A) 7.33

(Q) For the compound O=C(NCc1ccc(S(=O)(=O)N2CC3CCC(F)(F)C3C2)cc1)c1cc2ccncc2o1 (stereo not shown) [Example 296] , give its reported pIC50.
(A) 8.01

(Q) Identify measured pIC50 associated with O=C(NCc1ccc(S(=O)(=O)N2CCCCC2)cc1)c1ccc2nccn2n1 [Example 16]
(A) 7.66
